Please respond with reported growth for every item in the list.
# System: RXF 393 renal
# test-method-notes: NCI-60 one-dose screen, 48 h (100 = growth as untreated, 0 = no growth, -100 = all killed)
# details: 10 µM unless noted
Compounds without any hit were thinned out: in the full panel of roughly 83,000, 20% have a hit.
Give bare numbers, in %.

Use the examples below as a reference point.
molecule	growth [%]
CCOC(=O)CC1C(CNC(=O)NC)OC(n2cnc3c(NC(=O)Nc4ccccc4)ncnc32)C1O[Si](C)(C)C(C)(C)C (centres undefined)	-45.2
COc1cc2cc(Oc3ccc(NC(=O)Nc4ccc(F)c(C(F)(F)F)c4)cc3)c(C)nc2cc1OCCN1CCCCC1	59.5
COc1cc2c(c(OC)c1OC)C(=O)CC(c1cccc(C(=O)Nc3ccc(Br)cc3)c1)O2 (centres undefined)	66.5
Cc1ccc(Nc2oc(-c3ccccc3)nc2[P+](c2ccccc2)(c2ccccc2)c2ccccc2)cc1	-69.1

For every item in the list below, what is its measured growth?
1. O=C(Nc1ncc(Cc2ccccc2)s1)c1cc(-c2ccccc2)nc2ccccc12
2. COC1=C(OC)C(=O)C(CCCCCCCCCCO)=C(C)C1=O
3. COc1ccc(/C(C)=C(\c2ccc(Cl)cc2)c2ccc(OCCCN(C)C)cc2)cc1
4. Cn1cc(-c2nc(-c3c[nH]c4ccncc34)cs2)c2cc(F)ccc21

Solution:
1: 90.5; 2: 64; 3: 70.1; 4: -94.7

Problem: Answer with the recorded growth for the molecule listed here: COc1ccc(-c2cc(-c3ccc(N(C)C)cc3)nc(NC(=O)c3cccnc3)n2)cc1
Solution: 107

###

# System: NCI-H460 lung
# test-method-notes: NCI-60 one-dose screen, 48 h
# details: 10 µM unless noted
About 83,000 compounds went through this panel and 20% of them were active in at least one assay; those are over-represented in the sample as a whole. Calls of active or inactive are those of the source. How the source made its calls: active means growth percent below 10; inactive means the rest.
Your reply should match one of these outcome classes. YES = active, NO = inactive

compound	label
CCCCC#Cc1c(I)n(C2OC(CO[Si](C)(C)C(C)(C)C)C3OC(C)(C)OC32)c(=O)[nH]c1=O (centres undefined)	NO
C/C(=N\NC(=O)c1ccc(C(C)(C)C)cc1)c1ccc(O)cc1O	YES
CCOC(=O)/C=C1\S/C(=N\Nc2cc(=O)[nH]c3ccc(OC)cc23)N(c2ccccc2)C1=O	NO

Problem: Name the outcome recorded for O=C(CSc1nnc(-c2cc(-c3ccc(Cl)cc3)nc3ccccc23)n1-c1ccccc1)Nc1ccc(Cl)cc1 in the assay.
Solution: NO

Problem: Name the outcome recorded for Clc1ccc2c(NCCCn3cnc4c(N5CCCC5)nc(Cl)nc43)ccnc2c1 in the assay.
Solution: NO

Problem: Name the outcome recorded for O=C1NCCN1/N=C/c1c(Cl)n(Cc2ccc(Cl)cc2)c2ccccc12 in the assay.
Solution: NO

Problem: Name the outcome recorded for Cc1ccc2c(c1)CC(O)CC1C(=O)N(CCO)CC(=O)N21 (centres undefined) in the assay.
Solution: NO

Problem: Name the outcome recorded for COc1nc2ccccc2cc1/C=C1/C=C(c2ccccc2)NC1=O in the assay.
Solution: NO

Problem: Name the outcome recorded for O=c1c(/C=C/c2c(O)ccc3ccccc23)nnc2sc(-c3cccc([N+](=O)[O-])c3)nn12 in the assay.
Solution: NO

###

Please respond with reported growth for every item in the list.
# Test system: U251 CNS
# test-method-notes: NCI-60 one-dose screen, 48 h (100 = growth as untreated, 0 = no growth, -100 = all killed)
# details: 10 µM unless noted
# Experimental: Growth inhibition of the U251 human tumor cell line is measured as a screen for anti-cancer activity. Cells are grown in 96 well plates and exposed to the test compound for 48 hours. Compounds are tested at a single concentration, which is 10^-5 M for most compounds. The reported endpoint is percent growth (GI% or GIPRCNT), where numbers from 0 - 100% represent growth inhibition, and numbers from -100% - 0 represent cell death. For example, a value of 40 represents 60% growth inhibition. […]
This is part of a sample that, as a whole, favours compounds with a hit. Of some 83,000 tested, about 20% had one in any assay.
Give bare numbers, in %.

Use the examples below as a reference point.
molecule	tested-on	readout-type	value-observed
CCN1C(=O)N(CC)C2C1NN=c1s/c(=C\c3ccc([N+](=O)[O-])cc3)c(=O)n12 (centres undefined)	U251 CNS	growth	20.8
Cc1ccc(-c2nc(C#N)c(S(=O)(=O)n3nc(C)cc3N)o2)cc1	U251 CNS	growth	95.4
CCOC(=O)C1=C(c2ccccc2)N=C2N(c3ccccc3)N=C(C(C)=O)N2C1c1ccc(Br)cc1 (centres undefined)	U251 CNS	growth	98
Cc1nn(-c2ccccc2)c(Oc2ccccc2)c1/C=N/NC(=O)Cn1c(=O)sc2ccccc21	U251 CNS	growth	51.3
O=C1OCC2=C1C(c1cccc(F)c1)c1cc3c(cc1N2CCO)CCC3 (centres undefined)	U251 CNS	growth	14.3

For every item in the list below, what is its measured growth?
1. O=C1c2c(c3c4cccnc4[nH]c3c3ccc4ccccc4c23)C(=O)N1O
2. FC(F)(F)c1cccc(-c2nnn(Cc3cc(-c4cccc(Cl)c4)no3)n2)c1

Solution:
15.2
104

For every item in the list below, what is its measured growth?
1. CC(C)(C)[C@H](OCc1cn([C@H]2C[C@@H](O)[C@@H](CO)O2)c(=O)[nH]c1=O)c1ccc(C#Cc2ccccc2)cc1[N+](=O)[O-]
2. CC1(C)C2=C(C(=O)N1Cc1ccccc1)C(c1ccco1)N(C(=O)C1CCC1)CCN2 (centres undefined)

Solution:
1: 68.9; 2: 100

###

# Test system: SK-OV-3 ovarian
# test-method-notes: NCI-60 one-dose screen, 48 h (100 = growth as untreated, 0 = no growth, -100 = all killed)
# details: 10 µM unless noted
About 83,000 compounds went through this panel and 20% of them were active in at least one assay; those are over-represented in the sample as a whole.
Could you please mark 1 for values of growth below 50% and 0 for values at or above it?

compound	label
CCN1CCN(c2cc(C(=O)Nc3cccc(Nc4ccc5c(OC)cccc5n4)c3)cc(C(F)(F)F)c2)CC1	0
Nc1c(C(=O)c2ccc(Cl)cc2)sc(Nc2ccccc2)c1-c1nc2ccccc2s1	1

Problem: Lab note: confirm whether the reported growth for this compound is below 50%, equality not counting. compound: COc1cccc(C2C3=C(COC3=O)N(CCO)c3cc4c(cc32)OCCO4)c1 (centres undefined)
Solution: 1

Problem: Lab note: confirm whether the reported growth for this compound is below 50%, equality not counting. compound: O=C(O)/C=C/c1cn(-c2ccccc2)nc1-c1ccc(F)cc1
Solution: 0

Problem: Lab note: confirm whether the reported growth for this compound is below 50%, equality not counting. compound: N#CSCc1cc(Cl)c(CSC#N)cc1Cl
Solution: 0

Problem: Lab note: confirm whether the reported growth for this compound is below 50%, equality not counting. compound: COc1cc(CNC(=O)CCCC/C=C/C(C)C)ccc1OCc1cn(-c2cccc([N+](=O)[O-])c2)nn1
Solution: 0

Problem: Lab note: confirm whether the reported growth for this compound is below 50%, equality not counting. compound: Nc1ncc(-c2ccc3ncnc(N4CCc5cc(F)c(Cl)cc54)c3c2)cc1C=O
Solution: 1

Problem: Lab note: confirm whether the reported growth for this compound is below 50%, equality not counting. compound: CNC(=O)c1cc(Oc2ccc3nc(NC(=O)c4cc(C(F)(F)F)cc(C(F)(F)F)c4)sc3c2)ccn1
Solution: 1

Problem: Lab note: confirm whether the reported growth for this compound is below 50%, equality not counting. compound: CC(=O)OCC(=O)O[C@@H]1C[C@]2(C(C)C)O[C@@]1(C)[C@@H]1CC[C@@H](C)[C@H]1[C@@H]2OC(=O)/C=C/c1ccccc1
Solution: 0

###

# System: SK-MEL-2 melanoma
# test-method-notes: NCI-60 one-dose screen, 48 h (100 = growth as untreated, 0 = no growth, -100 = all killed)
# details: 10 µM unless noted
Compounds without any hit were thinned out: in the full panel of roughly 83,000, 20% have a hit.
readout-type: growth (%)
Answers are plain numbers, in %.

compound	growth (%)
O=C(CN1C(=O)NC2NC(=O)NC21)N/N=C/c1cccc([N+](=O)[O-])c1 (stereo not given)	113

For every item in the list below, what is its measured growth?
1. CN1CCN(Cc2ccc(NC(=O)c3cncc(C#Cc4cnc(N)c5ccc(C#N)cc45)c3)cc2C(F)(F)F)CC1
2. CCOC(=O)c1c(Nc2nc3ccccc3s2)sc2c1CCC(=O)C2

Solution:
1: -62; 2: 103

For every item in the list below, what is its measured growth?
1. CN(C)c1ccc(/C=N/NC(=O)CSc2nc3sc4c(c3c(=O)n2-c2ccccc2)CCCCC4)cc1
2. CSc1nn2c(-c3cc4cc(Br)ccc4oc3=O)ccnc2c1C#N

Solution:
1. 78.6
2. 104
